# credit: paper PMC9478491

# assay_info: Pharmacokinetics in rats (HPLC-MS/MS, WinNonlin)
# Assay type: in vivo, SD rats
# experimental_context: SD, rat, plasma, iv, 5 mg/kg, allopurinol, rats, intravenous injection 5 mg/kg, n = 3; read-out: MRT (0–∞), Average
experimental_endpoint: MRT inf

Given Oc1ncnc2[nH]ncc12 , state its recorded MRT inf.
16.2 min

* * *

# assay_info: Pharmacokinetics in rats (HPLC-MS/MS, WinNonlin)
# Assay type: in vivo, SD rats
# experimental_context: SD, rat, plasma, iv, 5 mg/kg, allopurinol, rats, intravenous injection 5 mg/kg, single animals; read-out: AUC (0–t), individual rats 1-3
# Procedure: The volume of intravenous administration was 1 ml/250 g, and the volume of oral administration was 1 ml/100 g. Whole blood was collected at 2, 5, 10, 20, 30, 60, 120, 240, 360, 480, 720, and 1440 min after intravenous administration. The rats’ blood was transferred to the heparinized test tube. The whole blood was centrifuged at 8,000 rpm for 5 min, and the plasma was separated and stored in a refrigerator at -80°C for testing.
experimental_endpoint: AUC(0-t) (ng·h/mL)
State just the number; it will be interpreted in ng·h/mL.

Given Oc1ncnc2[nH]ncc12 , state its recorded AUC(0-t).
1600

* * *

# assay_info: Pharmacokinetics in rats (HPLC-MS/MS, WinNonlin)
# Type: in vivo, SD rats
# experimental_context: SD, rat, plasma, po, 50 mg/kg; read-out: calculated bioavailability
experimental_endpoint: bioavailability (%)
State just the number; it will be interpreted in %.

Given Oc1ncnc2[nH]ncc12 , state its recorded bioavailability.
158

* * *

# assay_info: Pharmacokinetics in rats (HPLC-MS/MS, WinNonlin)
# Type: in vivo, SD rats
# experimental_context: SD, rat, plasma, po, 50 mg/kg, allopurinol, rats, gavage 50 mg/kg, n = 3; read-out: Cmax, Average
experimental_endpoint: Cmax (ng/mL)
State just the number; it will be interpreted in ng/mL.

Given Oc1ncnc2[nH]ncc12 , state its recorded Cmax.
6610

* * *

# assay_info: Pharmacokinetics in rats (HPLC-MS/MS, WinNonlin)
# Assay type: in vivo, SD rats
# experimental_context: SD, rat, plasma, po, 50 mg/kg, allopurinol, rats, gavage 50 mg/kg, single animals; read-out: Cmax, individual rats 1-3
experimental_endpoint: Cmax (µg/mL)
State just the number; it will be interpreted in µg/mL.

Given Oc1ncnc2[nH]ncc12 [allopurinol] , state its recorded Cmax.
6.1

* * *

# assay_info: Pharmacokinetics in rats (HPLC-MS/MS, WinNonlin)
# Assay type: in vivo, SD rats
# experimental_context: SD, rat, plasma, po, 50 mg/kg; read-out: Tmax, individual rats 1-3
experimental_endpoint: Tmax (h)
State just the number; it will be interpreted in h.

Given Oc1ncnc2[nH]ncc12 , state its recorded Tmax.
1

* * *

# assay_info: Pharmacokinetics in rats (HPLC-MS/MS, WinNonlin)
# Assay type: in vivo, SD rats
# experimental_context: SD, rat, plasma, iv, 5 mg/kg, allopurinol, rats, intravenous injection 5 mg/kg, single animals; read-out: AUC (0–∞), individual rats 1-3
# Description: The volume of intravenous administration was 1 ml/250 g, and the volume of oral administration was 1 ml/100 g. Whole blood was collected at 2, 5, 10, 20, 30, 60, 120, 240, 360, 480, 720, and 1440 min after intravenous administration. The rats’ blood was transferred to the heparinized test tube. The whole blood was centrifuged at 8,000 rpm for 5 min, and the plasma was separated and stored in a refrigerator at -80°C for testing.
experimental_endpoint: AUC(0-inf) (ng·h/mL)
State just the number; it will be interpreted in ng·h/mL.

Given Oc1ncnc2[nH]ncc12 , state its recorded AUC(0-inf).
1650

* * *

# assay_info: Pharmacokinetics in rats (HPLC-MS/MS, WinNonlin)
# Type: in vivo, SD rats
# experimental_context: SD, rat, plasma, iv, 5 mg/kg, allopurinol, rats, intravenous injection 5 mg/kg, single animals; read-out: MRT (0–∞), individual rats 1-3
experimental_endpoint: MRT inf (min)
State just the number; it will be interpreted in min.

Given Oc1ncnc2[nH]ncc12 [allopurinol] , state its recorded MRT inf.
16.2

* * *

# assay_info: Pharmacokinetics in rats (HPLC-MS/MS, WinNonlin)
# Format: in vivo, SD rats
# experimental_context: SD, rat, plasma, iv, 5 mg/kg, allopurinol, rats, intravenous injection 5 mg/kg, n = 3; read-out: AUC (0–t), Average
experimental_endpoint: AUC(0-t) (ng·h/mL)
State just the number; it will be interpreted in ng·h/mL.

Given Oc1ncnc2[nH]ncc12 [allopurinol] , state its recorded AUC(0-t).
1540

* * *

# assay_info: Pharmacokinetics in rats (HPLC-MS/MS, WinNonlin)
# Type: in vivo, SD rats
# experimental_context: SD, rat, plasma, po, 50 mg/kg, allopurinol, rats, gavage 50 mg/kg, n = 3; read-out: MRT (0–∞), Average
experimental_endpoint: MRT inf (h)
State just the number; it will be interpreted in h.

Given Oc1ncnc2[nH]ncc12 , state its recorded MRT inf.
2.36

* * *

# assay_info: Pharmacokinetics in rats (HPLC-MS/MS, WinNonlin)
# Assay type: in vivo, SD rats
# experimental_context: SD, rat, plasma, iv, 5 mg/kg, allopurinol, rats, intravenous injection 5 mg/kg, n = 3; read-out: AUC (0–∞), Average
experimental_endpoint: AUC(0-inf) (ng·h/mL)
State just the number; it will be interpreted in ng·h/mL.

Given Oc1ncnc2[nH]ncc12 , state its recorded AUC(0-inf).
1590
